B1: library; a variant is named by its letters at N, in order (parent)
chain: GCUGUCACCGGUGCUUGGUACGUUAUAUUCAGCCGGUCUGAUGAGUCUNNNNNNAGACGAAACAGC

variants of: B1; assay: normalized RNA/DNA level with ligand (relative to sTRSVctl = 100) (log10 (% of sTRSVctl)); HEK293T overexpressing SLC46A1; ligand concentration (+) RNA-Seq: 6 mM; higher = less ribozyme self-cleavage, higher mRNA level; conditions: with (6R,S)-folinic acid; ligand present: yes
reported.property: normalized RNA/DNA level with ligand (log10)
A bare number is all that is needed in reply.

A selection of reference data follows.
GAACCG; 2.03
GUGCUC; 2.01
GUGGUG; 2
UCCCAC; 2.02
AUUAUU; 2.03

Given "CGGAUU" , state its recorded normalized RNA/DNA level with ligand (log10). 2.02

For "AUGUCC" , what is its reported normalized RNA/DNA level with ligand (log10)? 2.01

For the variant "AAUGGA" , what normalized RNA/DNA level with ligand (log10) is on record? 1.99

Endpoint output: normalized RNA/DNA level with ligand (log10) of "GCAGCG" . Value? 2.03

Request the reported normalized RNA/DNA level with ligand (log10) associated with "GGAUCC" 2.06

Given the entry "UCCUUG" , report its measured normalized RNA/DNA level with ligand (log10). 1.99

Fill blank: measured normalized RNA/DNA level with ligand (log10) of the variant "GGUUCG" is ____. 2.06

Given the entry "AGACGU" , report its measured normalized RNA/DNA level with ligand (log10). 2.01

Value lookup for normalized RNA/DNA level with ligand (log10); key = "UACACU" 2.03

Entry under review: "GACGAC" . Reported normalized RNA/DNA level with ligand (log10)? 2.01

Looking for the measured normalized RNA/DNA level with ligand (log10) of "AAUCAU" , can you help? 1.99
